- REPORTED_CONDITIONS: in toluene, 303.2 K
PROPERTY_LABEL: solubility (mole fraction)

Q) // query solubility (mole fraction) value for entry Clc1ccc(SSc2ccc(Cl)cc2)cc1
A) 0.0219

====

- REPORTED_CONDITIONS: in toluene, 307.85 K
PROPERTY_LABEL: solubility (mole fraction)

Q) // query solubility (mole fraction) value for entry Clc1ccc(SSc2ccc(Cl)cc2)cc1
A) 0.0446

====

- REPORTED_CONDITIONS: in ethyl acetate, 307.9 K
PROPERTY_LABEL: solubility (mole fraction)
Provide a numeric answer; units are not to be included.

Q) Param item = Clc1ccc(SSc2ccc(Cl)cc2)cc1 ; retrieve measured solubility (mole fraction).
A) 0.038
